assayed.system: Cellular tumor antigen p53 (Homo sapiens) (UniProt P04637)
Sequence (P04637 whole entry, looked up): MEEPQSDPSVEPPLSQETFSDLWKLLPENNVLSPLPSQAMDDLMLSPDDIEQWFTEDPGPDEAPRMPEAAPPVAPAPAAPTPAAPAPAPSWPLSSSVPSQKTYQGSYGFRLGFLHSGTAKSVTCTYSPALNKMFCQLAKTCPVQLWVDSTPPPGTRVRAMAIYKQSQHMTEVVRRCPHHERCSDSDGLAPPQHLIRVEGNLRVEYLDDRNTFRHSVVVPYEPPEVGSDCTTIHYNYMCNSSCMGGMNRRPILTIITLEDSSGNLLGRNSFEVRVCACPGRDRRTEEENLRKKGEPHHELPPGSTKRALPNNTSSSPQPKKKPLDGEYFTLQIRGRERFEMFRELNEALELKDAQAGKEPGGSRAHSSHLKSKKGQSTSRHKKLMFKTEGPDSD
assay: TOX21_p53_BLA_p2_ratio: Tox21 HCT-116 p53 Agonism Beta-lactamase Assay, Ratio, Phase 2 (AID 2283592)
Records with an inconclusive call do not appear. Calls of active or inactive are those of the source. How the source made its calls: active means hit-call score of the fitted dose curve at least 0.9, where 1 is the maximum; inconclusive means response in the unintended direction; inactive means score below 0.9.
value.type: AC50

compound=C#CC1(O)CCCCC1 test_value=inactive
compound=CCCCCCCCCCCCCCCCCCn1cc[n+](C)c1 test_value="8.42 µM (active)"
compound="O=C1OC2(c3cc(Br)c(O)cc3Oc3c2cc(Br)c(O)[c]3[Hg])c2ccccc21 (stereo not drawn)" test_value=inactive
compound="COC(=O)c1cncn1C(C)c1ccccc1 (stereo not drawn)" test_value=inactive
compound="C[N+]1(C)[C@@H]2CC[C@H]1CC(OC(=O)C(CO)c1ccccc1)C2 (stereo partly drawn)" test_value=inactive
compound=CCN(CC)CCOC(=O)C(O)(c1ccccc1)c1ccccc1 test_value=inactive
compound=CCCCC/C=C\C/C=C\C/C=C\C/C=C\CCCC(=O)NCC(=O)O test_value=inactive
compound=CC1(C)CC(=O)CC(C)(C)N1[O] test_value=inactive
compound=CNC(=O)Oc1ccccc1C(=O)Nc1ccccc1 test_value=inactive
compound="O=C1Nc2ccc(Cl)cc2C(c2ccccc2)=NC1O (stereo not drawn)" test_value=inactive
compound=CC(=O)C=Cc1ccc2c(c1)OCO2 test_value="18.1 µM (active)"
compound=N#CC(C#N)=Cc1ccc(O)c(O)c1 test_value=inactive
compound=C[C@@H](Cc1ccccc1)NCCC(c1ccccc1)c1ccccc1 test_value=inactive

* * *

Read-out: Collagen III, COL3A1 (gene 1281)
assay: BSK_hDFCGF_CollagenIII: BioMAP Diversity Plus: hDFCGF Assay for Collagen III Biomarker Activity (AID 2283056)
condition.description: primary human foreskin fibroblasts; actives raise or lower the signal
The source made the active and inactive calls. The calls were made as follows: active = hit-call score of the fitted dose curve at least 0.9, where 1 is the maximum; inactive = score below 0.9.
Possible outcomes: active, inactive

given_smiles=COC(C)(C)CCC[C@H](C)C/C=C/C(C)=C/C(=O)OC(C)C discrete_label=active
given_smiles=CCc1cc(C)cc(CC)c1-c1c(OC(=O)C(C)(C)C)n2n(c1=O)CCOCC2 discrete_label=inactive
given_smiles=O=[N+]([O-])O discrete_label=inactive
given_smiles=O=[N+]([O-])C=Cc1ccccc1 discrete_label=active
given_smiles=CC(C)COP(=O)(OCC(C)C)OCC(C)C discrete_label=inactive
given_smiles=COc1ccc(CO)cc1 discrete_label=inactive
given_smiles=Oc1cc(Cl)ccc1Cl discrete_label=inactive

* * *

assayed.system: rat Corticotropin Releasing Factor Receptor (CRF), Crhr1 (gene 58959)
assay: NVS_GPCR_rCRF: NovaScreen (NVS) G Protein-Coupled Receptor Assay for rat Corticotropin Releasing Factor Receptor (CRF) (AID 2283300)
Results filed as inconclusive are left out. Active and inactive are the calls of the source. Rule for the calls: active = hit-call score of the fitted dose curve at least 0.9, where 1 is the maximum; inconclusive = response in the unintended direction; inactive = score below 0.9.
Possible outcomes: y for active, n for inactive

molecule="CCC(O)=C1C(=O)CC(C(=O)O)CC1=O (stereo not drawn)" discrete_label=n
molecule=S=C(S)NCCNC(=S)S.[Mn+2].[S-]C([S-])=NCCN=C([S-])[S-].[Zn+2] discrete_label=y
molecule=C1CCC(SSC2CCCCC2)CC1 discrete_label=n
molecule=C[C@]12CC[C@@H]3c4ccc(O)cc4CC[C@H]3[C@@H]1CCC2=O discrete_label=n
molecule="CCC(C)(C)C1CCC(O)CC1 (stereo not drawn)" discrete_label=n
molecule=O=C(O)c1cccc(C[C@@H]2COc3ccc(OCc4nc5cc(F)ccc5s4)cc3[C@@H]2O)c1 discrete_label=n
molecule=O=C(OCCCCCOC(=O)c1ccccc1)c1ccccc1 discrete_label=n
molecule=Cc1cc(C)c(O)c(C)c1 discrete_label=n
molecule=O=c1[nH]sc2ccccc12 discrete_label=y
molecule=S=C([S-])NCCNC(=S)[S-].[Mn+2] discrete_label=y
molecule=CN(C)c1ccc(N=NS(=O)(=O)O)cc1 discrete_label=n
molecule=OCCO discrete_label=n
molecule=Cc1oc(-c2ccccc2)nc1CCOc1cccc2c1ccn2CCC(=O)O discrete_label=n

* * *

Read-out: Intercellular Adhesion Molecule 1 (ICAM1), ICAM1 (gene 3383)
assay: BSK_3C_ICAM1: BioMAP Diversity Plus: 3C Assay for Intercellular Adhesion Molecule 1 (ICAM1) Biomarker Activity (AID 2283003)
condition.description: primary human endothelial cells (HUVEC); actives raise or lower the signal
The source made the active and inactive calls. How the source made its calls: active means hit-call score of the fitted dose curve at least 0.9, where 1 is the maximum; inactive means score below 0.9.
Possible outcomes: active, inactive

compound=CC1(C)[C@H](C(=O)O[C@H](C#N)c2cccc(Oc3ccccc3)c2)[C@@H]1C=C(Br)Br discrete_label=inactive
compound="Cc1ccc(OP(=O)(Oc2ccc(C)cc2)Oc2ccc(C)cc2)cc1 (tested in a mixture with another compound)" discrete_label=inactive
compound=O=[N+]([O-])C=Cc1ccccc1 discrete_label=active
compound=Oc1cc(Cl)ccc1Cl discrete_label=inactive
compound=CCCCCCCCCCCC#N discrete_label=inactive
compound=N#CCCCCC#N discrete_label=inactive

* * *

Read-out: Interleukin-8 (IL8), CXCL8 (gene 3576)
assay: BSK_MyoF_IL8: BioMAP Diversity Plus: MyoF Assay for Interleukin-8 (IL8) Biomarker Activity (AID 2284261)
condition.description: primary human lung fibroblasts
Activity calls are given as the source filed them. How the source made its calls: active means hit-call score of the fitted dose curve at least 0.9, where 1 is the maximum; inactive means score below 0.9.
Possible outcomes: active, inactive

compound=CCCCCCCCCCCC#N discrete_label=inactive
compound=O=C(O)CCCc1ccc(N(CCCl)CCCl)cc1 discrete_label=inactive
compound=O=[N+]([O-])C=Cc1ccccc1 discrete_label=active
compound="Cc1ccc(OP(=O)(Oc2ccc(C)cc2)Oc2ccc(C)cc2)cc1 (tested in a mixture with another compound)" discrete_label=active
compound=Clc1ccc(-c2ccccc2)cc1 discrete_label=inactive
compound=CC1(C)[C@H](C(=O)O[C@H](C#N)c2cccc(Oc3ccccc3)c2)[C@@H]1C=C(Br)Br discrete_label=inactive
compound=O=S(=O)(c1ccccc1)c1ccccc1 discrete_label=inactive
compound=CC(C)CCCCCCCOP(=O)(Oc1ccccc1)Oc1ccccc1 discrete_label=active
compound=C=CCN(CC=C)C(=O)C(Cl)Cl discrete_label=inactive
compound="CCC(C)c1cc([N+](=O)[O-])cc([N+](=O)[O-])c1OC(=O)C=C(C)C (configuration not stated)" discrete_label=active
compound=Oc1cc(Cl)ccc1Cl discrete_label=inactive
compound=CC(C)COP(=O)(OCC(C)C)OCC(C)C discrete_label=inactive

* * *

assay: TOX21_p53_BLA_p3_viability: Viability Assessment in the Tox21 HCT-116 p53 Agonism Beta-lactamase Assay, Phase 3 (AID 2283593);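 further: cells exposed to compound for 16 h before reading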
Text: TOX21_p53_BLA_p3 is a cell-based, single-readout assay that uses HCT116, a human intestinal cell line, […] in a 1536-well plate.TOX21_p53_BLA_p3_viability is an assay readout measuring cellular ATP content and detected with CellTiter-Glo Luciferase-coupled ATP quantitation.TOX21_p53_BLA_p3_viability used a type of viability reporter where loss-of-signal activity can be used to understand changes in the cell viability. […]
Inconclusive results are not listed. Active and inactive are the calls of the source. How the source made its calls: active means hit-call score of the fitted dose curve at least 0.9, where 1 is the maximum; inconclusive means response in the unintended direction; inactive means score below 0.9.
value.type: AC50

compound=O=C(C[C@@H]1NCCC[C@H]1O)Cn1cnc2cc(Br)c(Cl)cc2c1=O test_value=inactive
compound=Cc1cc(Cl)ccc1N=CN(C)C test_value=inactive
compound="C1CCC2CCCCC2C1 (stereo not drawn)" test_value=inactive
compound=ClCOCCl test_value=inactive
compound=Nc1ccccc1-c1ccccc1 test_value=inactive
compound=COc1ccc(C(=O)N2CCCC2=O)cc1 test_value=inactive
compound=CCCN(CC1CC1)c1c([N+](=O)[O-])cc(C(F)(F)F)cc1[N+](=O)[O-] test_value=inactive
compound=COC(=O)[C@H]1[C@@H](OC(=O)c2ccccc2)C[C@@H]2CC[C@H]1N2C test_value=inactive
compound=COC(=O)[C@]12CCC(C)(C)C[C@H]1[C@H]1C(=O)C=C3[C@@]4(C)C=C(C#N)C(=O)C(C)(C)[C@@H]4CC[C@@]3(C)[C@]1(C)CC2 test_value="1.37 µM (active)"
compound=Oc1cccc(Cl)c1 test_value=inactive
compound=Nc1ccc(Cc2ccc(N)c(Cl)c2)cc1Cl test_value="77.1 µM (active)"
compound=c1ccc2c(c1)[nH]c1cnccc12 test_value=inactive
compound=c1cc[n+]2c(c1)-c1cccc[n+]1CC2 test_value=inactive

* * *

assay: ATG_NRF2_ARE_CIS: Attagene CIS-FACTORIAL HepG2 Assay for human Nuclear Factor Erythroid 2 Related Factor 2 (NFR2) response to Antioxidant Response Elements (ARE) (AID 2282992)
condition.description: HepG2 Attagene ARE/NRF2 reporter, transcription factor activity; actives raise or lower the signal
Calls of active or inactive are those of the source. The calls were made as follows: active = hit-call score of the fitted dose curve at least 0.9, where 1 is the maximum; inactive = score below 0.9.
Possible outcomes: Yes = active, No = inactive

compound=N#CCNCC#N discrete_label=No
compound=N#Cc1cc(I)c(O)c(I)c1 discrete_label=Yes
compound=Cc1ccc(N(SC(F)(Cl)Cl)S(=O)(=O)N(C)C)cc1 discrete_label=Yes
compound=CCCCCCCCCCCCCCCC[N+](C)(C)C discrete_label=No
compound=CC1(C)[C@H](C(=O)O[C@H](C#N)c2cccc(Oc3ccccc3)c2)[C@@H]1C=C(Br)Br discrete_label=No
compound=O=[N+]([O-])C=Cc1ccccc1 discrete_label=No
compound=CSc1nc(N=[N+]=[N-])nc(NC(C)C)n1 discrete_label=Yes
compound=C=CCO discrete_label=No
compound=O=S(=O)(O)OOS(=O)(=O)O discrete_label=No
compound=CN(C)CCC#N discrete_label=No
compound=CNC(=O)Oc1cc(C)c(SC)c(C)c1 discrete_label=No
compound=C[N+](C)=CCl discrete_label=No
compound="c1cc(OCC2CO2)ccc1Cc1ccc(OCC2CO2)cc1 (stereo not given)" discrete_label=Yes
compound=C[C@]12CCC(=O)C(O)=C1CC[C@@H]1[C@@H]2CC[C@]2(C)C(=O)CC[C@@H]12 discrete_label=Yes
compound=C=CC(=O)OCCO discrete_label=Yes
